Provide the recorded polymerase ribozyme fitness (log ratio) for the entries that follow.
B1: TPR t1 (parent)
chain: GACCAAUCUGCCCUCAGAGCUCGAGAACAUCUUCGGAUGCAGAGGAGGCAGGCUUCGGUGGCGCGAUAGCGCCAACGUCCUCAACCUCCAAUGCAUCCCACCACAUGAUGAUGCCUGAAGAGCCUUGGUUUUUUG

Variants of: B1
Assay: polymerase ribozyme fitness, log enrichment relative to wild type (log ratio); higher = more active; in vitro selection for triplet polymerase activity
Numbers only.

// solved cases for polymerase ribozyme fitness (log ratio) follow
>>> quantitative_readout("C102A A111C G120C")
-3.12
>>> quantitative_readout("G42A G71U A119U")
-2.99
>>> quantitative_readout("C12G G120C")
1.23
>>> quantitative_readout("G17C U21A G39A U112C C115A")
-1.1
>>> quantitative_readout("C28U U78C C101U")
-2.49
>>> quantitative_readout("C72G G107A")
-4.9
>>> quantitative_readout("G52A A74G U78G C80A")
-3.14
>>> quantitative_readout("C12U C34A U132A")
-1.35

Respectfully, I request polymerase ribozyme fitness (log ratio) for each entry included below.
1. C4U A16G C49U G69U G113U
2. C62U C88G
3. C8U A100C G117A

[-2.65, -0.561, -1.87]

The reported measurements were obtained from the RNAGym collection of RNA variant scans (doi:10.1073/pnas.2313332121).
